# Tested on: aquaporin 3
# ASSAY_PROCEDURE: Expression level of aquaporin 3 in skin epithelial cells (real-time PCR, corrected for GAPDH)
# Format: cell-based, Human
# STATED_CONDITIONS: NHEK; 30 μM; 24 hours; control (culture solution) = 1.0
Measured Relative gene expression level (average) of aquaporin 3 by item

Answered examples (2):
{"COMPOUND_SMILES": "Oc1cc(O)c2c(c1)O[C@H](c1ccc(O)c(O)c1)[C@H](O)[C@H]2c1c(O)cc(O)c2c1O[C@H](c1ccc(O)c(O)c1)[C@H](O)C2", "MEASURED": 0.98}
{"COMPOUND_SMILES": "Oc1cc(O)c2c(c1)O[C@H](c1ccc(O)c(O)c1)[C@@H](O)[C@@H]2c1c(O)cc(O)c2c1O[C@H](c1ccc(O)c(O)c1)[C@@H](O)C2", "MEASURED": 1.19}

**Q:** Using the record for "Oc1cc(O)c2c(c1)O[C@H](c1ccc(O)c(O)c1)[C@H](O)[C@H]2c1c(O)cc(O)c2c1O[C@H](c1ccc(O)c(O)c1)[C@H](O)[C@H]2c1c(O)cc(O)c2c1O[C@H](c1ccc(O)c(O)c1)[C@H](O)C2" , report its Relative gene expression level (average) of aquaporin 3.
**A:** 1.41

###

Readings of Relative gene expression level (average) of aquaporin 3 for the listed compounds
# System: aquaporin 3
# ASSAY_PROCEDURE: Expression level of aquaporin 3 in skin epithelial cells (real-time PCR, corrected for GAPDH)
# Type: cell-based, Human
# STATED_CONDITIONS: NHEK; 30 μM; 24 hours; control (culture solution) = 1.0
Field format: numeric only.

Please review the following examples before continuing.
{"COMPOUND": "O=C(O[C@@H]1Cc2c(O)cc(O)cc2O[C@@H]1c1ccc(O)c(O)c1)c1cc(O)c(O)c(O)c1 [ECG, epicatechin gallate]", "MEASURED": 1.63}
{"COMPOUND": "Oc1cc(O)c2c(c1)O[C@H](c1ccc(O)c(O)c1)[C@H](O)C2 [EC, epicatechin]", "MEASURED": 1.15}
{"COMPOUND": "Oc1cc(O)c2c(c1)O[C@H](c1ccc(O)c(O)c1)[C@@H](O)[C@@H]2c1c(O)cc(O)c2c1O[C@H](c1ccc(O)c(O)c1)[C@H](O)C2 [C-EC, procyanidin B4]", "MEASURED": 1.24}
{"COMPOUND": "O=C(O[C@@H]1Cc2c(O)cc(O)cc2O[C@@H]1c1cc(O)c(O)c(O)c1)c1cc(O)c(O)c(O)c1 [EGCG, epigallocatechin gallate]", "MEASURED": 1.36}
{"COMPOUND": "O=C(O[C@@H]1Cc2c(O)cc(O)c([C@@H]3c4c(O)cc(O)cc4O[C@H](c4ccc(O)c(O)c4)[C@H]3O)c2O[C@@H]1c1ccc(O)c(O)c1)c1cc(O)c(O)c(O)c1 [C-ECG, (+)-catechin-(−)epicatechin-3-O-gallate]", "MEASURED": 2.19}

**Q:** Tell me the measured Relative gene expression level (average) of aquaporin 3 of Oc1cc(O)c2c(c1)O[C@H](c1ccc(O)c(O)c1)[C@H](O)[C@H]2c1c(O)cc(O)c2c1O[C@H](c1ccc(O)c(O)c1)[C@@H](O)C2 [EC-C, Procyanidin B1] , please.
**A:** 1.14
